Quick reference for self-cleavage among some variants
B1: Twister Ribozyme (parent)
chain: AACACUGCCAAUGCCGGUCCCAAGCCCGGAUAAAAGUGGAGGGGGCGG

# Variants of: B1
# assay_details: self-cleavage, relative activity (ratio to wild type); higher = more cleavage; co-transcriptional
// no unit string in output, number only

Some entries whose results are on file:
>  <variant_identifier>
C5G A10U

>  <self-cleavage>
0.69

$$$$
>  <variant_identifier>
A23C A33U

>  <self-cleavage>
0.13

$$$$
>  <variant_identifier>
A33C G45C

>  <self-cleavage>
0.531

$$$$
>  <variant_identifier>
A40U C46U

>  <self-cleavage>
0.163

$$$$
>  <variant_identifier>
C3A C14U

>  <self-cleavage>
0.176

$$$$

// query # get_value(readout='self-cleavage', item= A2G A35C )
// result 0.308

// query # get_value(readout='self-cleavage', item= C9G A34U )
// result 0.47

// query # get_value(readout='self-cleavage', item= C26U C46A )
// result 0.207

// query # get_value(readout='self-cleavage', item= C5U A10C )
// result 1.06

// query # get_value(readout='self-cleavage', item= G39U G48C )
// result 0.265

// query # get_value(readout='self-cleavage', item= G36A G45A )
// result 0.714

// query # get_value(readout='self-cleavage', item= U12G C21G )
// result 0.0698

// query # get_value(readout='self-cleavage', item= C8A C19A )
// result 0.0947

// query # get_value(readout='self-cleavage', item= A40C G42A )
// result 0.152

// query # get_value(readout='self-cleavage', item= G45U G47U )
// result 0.386

// query # get_value(readout='self-cleavage', item= C5U U6A )
// result 0.674

// query # get_value(readout='self-cleavage', item= A1G G7U )
// result 0.137

// query # get_value(readout='self-cleavage', item= C19A U31A )
// result 0.219

// query # get_value(readout='self-cleavage', item= C5A G24A )
// result 0.0547

// query # get_value(readout='self-cleavage', item= A2C A30G )
// result 0.105
